For each entry below, report its log10 Ki value.
ASSAYED_TARGET: Rhesus PDE2A3 (Macaca mulatta, UniProt B3VTJ2)
Sequence (B3VTJ2 1-941): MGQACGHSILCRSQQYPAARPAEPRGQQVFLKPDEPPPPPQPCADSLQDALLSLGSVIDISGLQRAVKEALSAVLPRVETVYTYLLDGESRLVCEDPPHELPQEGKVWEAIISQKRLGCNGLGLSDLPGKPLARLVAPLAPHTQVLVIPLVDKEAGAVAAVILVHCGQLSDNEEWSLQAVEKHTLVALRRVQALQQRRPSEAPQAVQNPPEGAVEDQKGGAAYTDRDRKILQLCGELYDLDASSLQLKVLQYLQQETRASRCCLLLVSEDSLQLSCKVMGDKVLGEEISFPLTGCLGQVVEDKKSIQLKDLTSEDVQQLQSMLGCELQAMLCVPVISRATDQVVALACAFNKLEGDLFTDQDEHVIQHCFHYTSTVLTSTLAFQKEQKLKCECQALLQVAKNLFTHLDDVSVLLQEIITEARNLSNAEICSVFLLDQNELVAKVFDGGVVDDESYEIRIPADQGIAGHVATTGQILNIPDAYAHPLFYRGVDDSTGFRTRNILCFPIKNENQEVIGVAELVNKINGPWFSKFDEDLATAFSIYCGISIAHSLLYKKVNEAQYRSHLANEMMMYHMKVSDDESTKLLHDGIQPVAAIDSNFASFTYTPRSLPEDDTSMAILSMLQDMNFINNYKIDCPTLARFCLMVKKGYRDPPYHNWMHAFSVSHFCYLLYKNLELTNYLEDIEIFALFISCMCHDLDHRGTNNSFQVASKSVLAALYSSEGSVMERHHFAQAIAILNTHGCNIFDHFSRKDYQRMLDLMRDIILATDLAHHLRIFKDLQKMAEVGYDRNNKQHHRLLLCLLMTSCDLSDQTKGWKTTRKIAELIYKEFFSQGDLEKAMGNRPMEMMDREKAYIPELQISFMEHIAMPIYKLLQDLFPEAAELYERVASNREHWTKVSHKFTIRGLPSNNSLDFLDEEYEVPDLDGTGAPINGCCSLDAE
PROTOCOL_SUMMARY: PDE2 fluorescence polarization (IMAP FP) inhibition assay, rhesus enzyme
Assay type: biochemical, rhesus macaque
COND: Rhesus PDE2, Lab A; read-out: Rhesus PDE2 Ki (nM) - Lab A
Each number you see is log10 of Ki, and the unit inside the log is nM.

Tell me its log10 Ki given COc1cc(C(C)NC(=O)c2cc(=O)[nH]c(C)n2)ccc1C(F)(F)F (stereo not shown) [Example 27] as the entry.
3.06

Tell me its log10 Ki given Cc1nc(C(=O)N[C@@H](c2ccc(OC(F)(F)F)c(F)c2)C(C)C)cc(=O)[nH]1 [Example 38] as the entry.
0.89

Tell me its log10 Ki given C[C@@H](NC(=O)c1cc(=O)[nH]c(Cc2cccnc2)n1)c1ccc(C(F)(F)F)cc1 [Example 6] as the entry.
1.74

Tell me its log10 Ki given Cc1nc(C(=O)N[C@@H](c2ccc(C(F)(F)F)c(F)c2)C(C)C)cc(=O)[nH]1 [Example 240] as the entry.
1.15

Tell me its log10 Ki given O=C(NC1(c2ccc(OC(F)(F)F)cc2)CC1)c1cc(=O)[nH]c(-c2ccccc2)n1 [Example 277] as the entry.
0.82

Tell me its log10 Ki given C[C@@H](NC(=O)c1cc(=O)[nH]c(-c2ccccc2)n1)c1ccc(SC(F)(F)F)cc1 [Example 142] as the entry.
0.15

Tell me its log10 Ki given O=C(NC1(c2ccc(OC(F)(F)F)cc2)CCC1)c1cc(=O)[nH]c(-c2ccccc2)n1 [Example 282] as the entry.
2.09

Tell me its log10 Ki given COc1cc(C(C)NC(=O)c2cc(=O)[nH]c(C3CC3)n2)ccc1C(F)(F)F (stereo not shown) [Example 226] as the entry.
2.70

Tell me its log10 Ki given CCc1nc(C(=O)N[C@H](C)c2ccc(C(F)(F)F)cc2)cc(=O)[nH]1 [Example 134] as the entry.
1.73

Tell me its log10 Ki given O=C(N[C@@H](c1ccc(OC(F)(F)F)c(F)c1)C1CC1)c1cc(=O)[nH]c(-c2ccccc2)n1 [Example 176] as the entry.
0.68

Tell me its log10 Ki given CC(C)(NC(=O)c1cc(=O)[nH]c(C2CC2)n1)c1ccc(C(F)(F)F)cc1 [Example 293] as the entry.
1.34

Tell me its log10 Ki given C[C@@H](NC(=O)c1cc(=O)[nH]c(-c2ccc(F)c(F)c2)n1)c1ccc(C(F)(F)F)cc1 [Example 139] as the entry.
2.14

Tell me its log10 Ki given Cc1nc(C(=O)NC2(c3ccc(SC(F)(F)F)c(F)c3)CCC2)cc(=O)[nH]1 [Example 129] as the entry.
2.34

Tell me its log10 Ki given CC(C)(NC(=O)c1cc(=O)[nH]c(-c2ncccn2)n1)c1ccc(SC(F)(F)F)c(F)c1 [Example 241] as the entry.
2.75

Tell me its log10 Ki given Cc1nc(C(=O)N[C@H](C)c2ccc(C(F)(F)F)c(F)c2)cc(=O)[nH]1 [Example 20] as the entry.
1.40

====

ASSAYED_TARGET: human PDE2A1 (Homo sapiens (Human))
PROTOCOL_SUMMARY: IMAP FP PDE selectivity panel, human PDE2A1
Type: biochemical
COND: Human PDE2, Lab B; read-out: Human PDE2 Ki (nM) - Lab B
METRIC_NAME: Ki (nM)
Please respond with the number in nM and leave the unit unwritten.

Tell me its Ki given CC(C)C(C)(NC(=O)c1cc(=O)[nH]c(-c2ncccn2)n1)c1ccc(S(F)(F)(F)(F)F)cc1 (stereo not drawn) as the entry.
202

Tell me its Ki given "Cc1nc(C(=O)NC(CO)(CO)c2ccc(C(F)(F)F)cc2)cc(=O)[nH]1" as the entry.
102

Tell me its Ki given "CC[C@@H](NC(=O)c1cc(=O)[nH]c(-c2ncccn2)n1)c1ccc2c(c1)OC(F)(F)O2" as the entry.
34

Tell me its Ki given "CC(C)(C)[C@@H](NC(=O)c1cc(=O)[nH]c(-c2ncccn2)n1)c1ccc(OC(F)(F)F)c(F)c1" as the entry.
8.2

Tell me its Ki given "Cc1cnc(-c2nc(C(=O)N[C@H](C)c3ccc(C(F)(F)F)cc3)cc(=O)[nH]2)o1" as the entry.
478

Tell me its Ki given "COc1ccc(Cc2nc(C(=O)N[C@@H](c3ccc(C(F)(F)F)cc3)C(C)C)cc(=O)[nH]2)cc1F" as the entry.
1.5

Tell me its Ki given "Cc1nc(C(=O)N[C@H](C)c2ccc(C(F)F)cc2)cc(=O)[nH]1" as the entry.
111

Tell me its Ki given "CC1([C@@H](NC(=O)c2cc(=O)[nH]c(-c3ncccn3)n2)c2ccc(OC(F)F)cc2)CC1" as the entry.
36

Tell me its Ki given "CC(C)[C@@H](NC(=O)c1cc(=O)[nH]c(C2CC2)n1)c1ccc(S(F)(F)(F)(F)F)cc1" as the entry.
2.7

Tell me its Ki given "O=C(N[C@@H](c1ccc(SC(F)(F)F)c(F)c1)C1CC1)c1cc(=O)[nH]c(C2CC2)n1" as the entry.
7.9

Tell me its Ki given CC1(C(NC(=O)c2cc(=O)[nH]c(-c3ncccn3)n2)c2ccc(SC(F)(F)F)c(F)c2)CC1 (single isomer, unassigned) as the entry.
7.4

Tell me its Ki given "COc1ccc([C@@H](C)NC(=O)c2cc(=O)[nH]c(-c3ccccc3)n2)cc1" as the entry.
50

Tell me its Ki given "Cc1nc(C(=O)N[C@@H](c2ccc(C(F)F)c(F)c2)C(C)(C)C)cc(=O)[nH]1" as the entry.
15

Tell me its Ki given "Cc1nc(C(=O)N[C@@H](c2ccc(C(F)(F)F)cc2)C(C)(C)C)cc(=O)[nH]1" as the entry.
4.1

====

ASSAYED_TARGET: Rhesus PDE2A3 (Macaca mulatta, UniProt B3VTJ2)
PROTOCOL_SUMMARY: PDE2 fluorescence polarization (IMAP FP) inhibition assay, rhesus enzyme
Type: biochemical, rhesus macaque
COND: Rhesus PDE2, Lab B; read-out: Rhesus PDE2 Ki (nM) - Lab B
For each entry below, report its Ki value.
Please respond with the number in nM and leave the unit unwritten.

Tell me its Ki given "Cc1nc(C(=O)N[C@@H](c2ccc(C3CC3)c(F)c2)C(C)C)cc(=O)[nH]1" as the entry.
5.1

Tell me its Ki given "CC(C)(C)[C@@H](NC(=O)c1cc(=O)[nH]c(C2CC2)n1)c1ccc(SC(F)(F)F)cc1" as the entry.
1

Tell me its Ki given "CC[C@@H](NC(=O)c1cc(=O)[nH]c(-c2ncccn2)n1)c1ccc(SC(F)(F)F)c(F)c1" as the entry.
1.9

Tell me its Ki given "C[C@@H](NC(=O)c1cc(=O)[nH]c(-c2ncccn2)n1)c1ccc(OC(F)(F)F)cc1F" as the entry.
28

====

ASSAYED_TARGET: Rhesus PDE2A3 (Macaca mulatta, UniProt B3VTJ2)
PROTOCOL_SUMMARY: PDE2 fluorescence polarization (IMAP FP) inhibition assay, rhesus enzyme
Type: biochemical, rhesus macaque
COND: Rhesus PDE2, Lab A; read-out: Rhesus PDE2 Ki (nM) - Lab A
Please assign class 0 whenever Ki is at or above 30 nM, and class 1 whenever it is below.

Is it true that Ki reported for "CC[C@@H](NC(=O)c1cc(=O)[nH]c(C2CC2)n1)c1ccc(SC(F)(F)F)c(F)c1" is less than 30 nM?
class 1

Is it true that Ki reported for Cc1cc(C(F)(F)F)ccc1C(C)NC(=O)c1cc(=O)[nH]c(C2CC2)n1 (centres unmarked) is less than 30 nM?
class 0

Is it true that Ki reported for "O=C(NC1(c2ccc(SC(F)(F)F)cc2)CCC1)c1cc(=O)[nH]c(-c2ccccc2)n1" is less than 30 nM?
class 1

Is it true that Ki reported for "Cc1nc(C(=O)N[C@H](C)c2ccc(S(F)(F)(F)(F)F)cc2)cc(=O)[nH]1" is less than 30 nM?
class 1

Is it true that Ki reported for "Cc1nc(C(=O)NC(C)(C)c2ccc(SC(F)(F)F)c(F)c2)cc(=O)[nH]1" is less than 30 nM?
class 0

Is it true that Ki reported for COc1ccc(C(NC(=O)c2cc(=O)[nH]c(-c3ncccn3)n2)c2ccc(C(F)(F)F)cc2)cc1 (centres unmarked) is less than 30 nM?
class 0

Is it true that Ki reported for "C[C@@H](NC(=O)c1cc(=O)[nH]c(-c2ccccc2)n1)c1cccc2ccccc12" is less than 30 nM?
class 0

====

For each entry below, report its Ki value.
ASSAYED_TARGET: human PDE2A1 (Homo sapiens (Human), UniProt O00408)
Sequence (O00408 other isoform, or with tags, fused parts or gaps): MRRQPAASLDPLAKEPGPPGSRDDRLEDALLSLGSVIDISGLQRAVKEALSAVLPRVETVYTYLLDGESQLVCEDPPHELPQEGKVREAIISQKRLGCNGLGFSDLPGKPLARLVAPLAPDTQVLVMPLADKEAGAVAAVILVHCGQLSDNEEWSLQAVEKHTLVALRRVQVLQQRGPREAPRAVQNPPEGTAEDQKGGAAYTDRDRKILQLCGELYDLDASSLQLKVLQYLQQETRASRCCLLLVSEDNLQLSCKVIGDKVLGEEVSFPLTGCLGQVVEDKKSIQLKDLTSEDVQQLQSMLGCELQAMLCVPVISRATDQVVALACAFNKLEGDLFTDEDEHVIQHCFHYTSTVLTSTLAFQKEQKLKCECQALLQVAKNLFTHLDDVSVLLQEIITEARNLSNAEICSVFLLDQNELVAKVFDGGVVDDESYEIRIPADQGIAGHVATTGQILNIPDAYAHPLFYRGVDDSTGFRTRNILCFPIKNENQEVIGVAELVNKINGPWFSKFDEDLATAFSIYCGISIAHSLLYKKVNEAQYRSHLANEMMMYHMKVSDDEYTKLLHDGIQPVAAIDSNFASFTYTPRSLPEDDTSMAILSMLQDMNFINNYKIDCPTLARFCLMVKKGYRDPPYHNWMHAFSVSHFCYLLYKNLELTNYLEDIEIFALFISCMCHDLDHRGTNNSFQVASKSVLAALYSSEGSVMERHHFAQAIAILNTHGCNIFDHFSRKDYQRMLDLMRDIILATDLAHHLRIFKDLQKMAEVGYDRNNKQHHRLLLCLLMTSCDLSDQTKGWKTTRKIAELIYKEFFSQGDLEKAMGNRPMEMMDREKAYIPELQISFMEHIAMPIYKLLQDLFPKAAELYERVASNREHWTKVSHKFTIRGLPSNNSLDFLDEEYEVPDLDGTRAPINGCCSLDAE
PROTOCOL_SUMMARY: IMAP FP PDE selectivity panel, human PDE2A1
Assay type: biochemical
COND: Human PDE2, Lab B; read-out: Human PDE2 Ki (nM) - Lab B
Please respond with the number in nM and leave the unit unwritten.

Report its Ki with human PDE2A1 (Homo sapiens (Human), UniProt O00408) as the test system: "Cc1nc(C(=O)N[C@@H](c2ccc(C(F)F)c(F)c2)C(C)C)cc(=O)[nH]1"
33

Report its Ki with human PDE2A1 (Homo sapiens (Human), UniProt O00408) as the test system: "O=C(NC1(c2ccc(CC(F)(F)F)cc2)CC1)c1cc(=O)[nH]c(-c2ncccn2)n1"
104

Report its Ki with human PDE2A1 (Homo sapiens (Human), UniProt O00408) as the test system: "CC[C@@H](NC(=O)c1cc(=O)[nH]c(C2CC2)n1)c1ccc(S(F)(F)(F)(F)F)cc1"
9.2
